- TESTED_TARGET: POU2 (OCT2 POU domain);BOB1 (OBF1, OCA-B) (human;human, UniProt P09086;Q16633 175-386;1-256, |)
- Sequence 1: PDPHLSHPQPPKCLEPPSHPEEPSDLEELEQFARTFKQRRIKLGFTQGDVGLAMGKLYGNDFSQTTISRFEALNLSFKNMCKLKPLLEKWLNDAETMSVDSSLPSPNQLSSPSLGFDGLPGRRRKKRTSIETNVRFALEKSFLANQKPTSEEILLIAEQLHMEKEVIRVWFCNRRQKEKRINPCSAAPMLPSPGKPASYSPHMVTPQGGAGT
- Sequence 2: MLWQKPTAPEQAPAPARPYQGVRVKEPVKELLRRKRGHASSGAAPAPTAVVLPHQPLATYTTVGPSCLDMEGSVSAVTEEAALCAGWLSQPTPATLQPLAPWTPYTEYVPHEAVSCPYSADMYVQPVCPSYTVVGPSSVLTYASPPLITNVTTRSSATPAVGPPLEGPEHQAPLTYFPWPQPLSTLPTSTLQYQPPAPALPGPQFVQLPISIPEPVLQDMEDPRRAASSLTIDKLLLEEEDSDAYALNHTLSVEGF
- ASSAY_INFO: EMSA-SELEX-seq; with BOB1 (ternary complex band); 20 mM Tris-HCl pH 7.6, 140 mM NaCl, 10% glycerol, 0.5 mM EDTA, 0.05% Triton X-100, 0.1 mg/mL BSA, 0.1 mg/mL poly(dI-dC), 5 mM DTT, room temperature, 20 min; high values mean tight binding
- CONDITIONS_USED: protein: recombinant;recombinant; copies: 1;1; dsDNA, one strand shown
MEASUREMENT_LABEL: binding signal

BIOSEQUENCE: AAACTAAG
binding signal: 0.052 % of ANNNNAAN 8-mers
//
BIOSEQUENCE: AATATAAA
binding signal: 0.101 % of ANNNNAAN 8-mers

// lookup binding signal for "ATGGGAAA" 0.0784 % of ANNNNAAN 8-mers

###

- TESTED_TARGET: POU1 (OCT1 POU domain) (human, UniProt P14859 260-458)
- Sequence (P14859 260-458): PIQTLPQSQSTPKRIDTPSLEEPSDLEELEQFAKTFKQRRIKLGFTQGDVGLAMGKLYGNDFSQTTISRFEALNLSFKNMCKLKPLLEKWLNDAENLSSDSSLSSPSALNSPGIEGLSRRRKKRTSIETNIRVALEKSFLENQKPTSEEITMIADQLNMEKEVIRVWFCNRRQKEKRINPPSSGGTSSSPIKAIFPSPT
- ASSAY_INFO: EMSA-SELEX-seq; no BOB1; 20 mM Tris-HCl pH 7.6, 140 mM NaCl, 10% glycerol, 0.5 mM EDTA, 0.05% Triton X-100, 0.1 mg/mL BSA, 0.1 mg/mL poly(dI-dC), 5 mM DTT, room temperature, 20 min; high values mean tight binding
- CONDITIONS_USED: protein: recombinant; dsDNA, one strand shown
MEASUREMENT_LABEL: binding signal

Sample records with binding signal:
BIOSEQUENCE: ATAGCAAA
MEASUREMENT_LABEL: binding signal
OBSERVED_VALUE: 0.0744 % of ANNNNAAN 8-mers

BIOSEQUENCE: ATCGAAAA
MEASUREMENT_LABEL: binding signal
OBSERVED_VALUE: 0.0511 % of ANNNNAAN 8-mers

BIOSEQUENCE: ACTTTAAG
MEASUREMENT_LABEL: binding signal
OBSERVED_VALUE: 0.0336 % of ANNNNAAN 8-mers

BIOSEQUENCE: AACAAAAG
MEASUREMENT_LABEL: binding signal
OBSERVED_VALUE: 0.0522 % of ANNNNAAN 8-mers

BIOSEQUENCE: AACCTAAA
MEASUREMENT_LABEL: binding signal
OBSERVED_VALUE: 0.0206 % of ANNNNAAN 8-mers

BIOSEQUENCE: ATACAAAC
MEASUREMENT_LABEL: binding signal
OBSERVED_VALUE: 0.0648 % of ANNNNAAN 8-mers

BIOSEQUENCE: AATGTAAA
MEASUREMENT_LABEL: binding signal
OBSERVED_VALUE: 0.614 % of ANNNNAAN 8-mers

BIOSEQUENCE: AGCTGAAC
MEASUREMENT_LABEL: binding signal
OBSERVED_VALUE: 0.0156 % of ANNNNAAN 8-mers

BIOSEQUENCE: ATCCCAAA
MEASUREMENT_LABEL: binding signal
OBSERVED_VALUE: 0.0263 % of ANNNNAAN 8-mers

BIOSEQUENCE: ACAGAAAG
MEASUREMENT_LABEL: binding signal
OBSERVED_VALUE: 0.0297 % of ANNNNAAN 8-mers

// lookup binding signal for "AATGAAAC" 0.0461 % of ANNNNAAN 8-mers

// lookup binding signal for "ATACAAAA" 0.144 % of ANNNNAAN 8-mers

// lookup binding signal for "AGAGGAAA" 0.069 % of ANNNNAAN 8-mers
